# MEASURED TARGET: UniProt:P00533
pIC50: −log10 of the molar value.
MEASURE NAME: pIC50

INSERT INTO assay_data (compound, measure_name, value_observed) VALUES
  ('O=C(Nc1ccc([N+](=O)[O-])cc1)C(c1ccc(C(F)(F)F)cc1)N(C(=O)c1ccccc1Cl)c1ccccc1 (stereo not shown) [Compound 5]', 'pIC50', 8.68);

====

# MEASURED TARGET: EGFR^L858R/T790M/C797S (Homo sapiens, UniProt P00533, C797S/L858R/T790M)
# Sequence (P00533 25-1210 T790M/C797S/L858R): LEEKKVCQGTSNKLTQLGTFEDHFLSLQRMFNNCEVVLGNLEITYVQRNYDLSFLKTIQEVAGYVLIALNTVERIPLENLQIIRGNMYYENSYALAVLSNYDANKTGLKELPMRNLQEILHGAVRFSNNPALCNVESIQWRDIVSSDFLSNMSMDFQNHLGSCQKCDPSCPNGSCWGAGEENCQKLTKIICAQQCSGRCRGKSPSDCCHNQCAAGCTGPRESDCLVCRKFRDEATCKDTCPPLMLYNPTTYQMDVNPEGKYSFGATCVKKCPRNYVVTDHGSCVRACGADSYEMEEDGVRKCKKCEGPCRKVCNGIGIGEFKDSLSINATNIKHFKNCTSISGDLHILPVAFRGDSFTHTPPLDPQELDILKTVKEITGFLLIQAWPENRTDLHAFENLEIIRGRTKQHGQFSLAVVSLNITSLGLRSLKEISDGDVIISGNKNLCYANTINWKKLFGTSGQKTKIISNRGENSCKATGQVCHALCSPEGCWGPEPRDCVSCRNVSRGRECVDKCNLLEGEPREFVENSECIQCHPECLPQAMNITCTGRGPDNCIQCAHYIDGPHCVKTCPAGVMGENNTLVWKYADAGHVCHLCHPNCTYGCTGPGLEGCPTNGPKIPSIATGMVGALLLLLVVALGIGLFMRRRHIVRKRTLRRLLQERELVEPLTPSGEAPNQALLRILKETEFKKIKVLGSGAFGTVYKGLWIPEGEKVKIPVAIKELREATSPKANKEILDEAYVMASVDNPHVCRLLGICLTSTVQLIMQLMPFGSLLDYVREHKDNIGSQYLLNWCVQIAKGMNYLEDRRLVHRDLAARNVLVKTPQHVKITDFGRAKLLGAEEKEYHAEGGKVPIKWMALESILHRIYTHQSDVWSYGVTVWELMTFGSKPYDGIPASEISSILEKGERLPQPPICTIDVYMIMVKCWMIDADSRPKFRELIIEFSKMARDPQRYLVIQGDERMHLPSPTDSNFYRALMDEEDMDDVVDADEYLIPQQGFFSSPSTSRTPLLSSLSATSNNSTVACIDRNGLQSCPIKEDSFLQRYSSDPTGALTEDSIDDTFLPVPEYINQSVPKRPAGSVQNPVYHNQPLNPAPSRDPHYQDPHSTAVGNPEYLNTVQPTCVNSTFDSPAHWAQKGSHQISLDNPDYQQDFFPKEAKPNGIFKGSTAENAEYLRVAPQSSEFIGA
# TEST DESCRIPTION: biochemical
MEASURE NAME: IC50 (µM)

INSERT INTO results (compound, measure_name, value_observed) VALUES
  ('O=C(Nc1ccc([N+](=O)[O-])cc1)C(c1ccc(C(F)(F)F)cc1)N(C(=O)c1ccccc1Cl)c1ccccc1 (stereo not shown) [Compound 5]', 'IC50', 0.19);
